# targetDesc: PD-1-Ig binding to PD-L1-TVMV-His (PD-L1-His) (Homo sapiens)
# Construct: hPDL1(19-239)-TVMV-His; made in house; host or cells: HEK293T cells
# Sequence (Q9NZQ7 with tags, fused parts or gaps): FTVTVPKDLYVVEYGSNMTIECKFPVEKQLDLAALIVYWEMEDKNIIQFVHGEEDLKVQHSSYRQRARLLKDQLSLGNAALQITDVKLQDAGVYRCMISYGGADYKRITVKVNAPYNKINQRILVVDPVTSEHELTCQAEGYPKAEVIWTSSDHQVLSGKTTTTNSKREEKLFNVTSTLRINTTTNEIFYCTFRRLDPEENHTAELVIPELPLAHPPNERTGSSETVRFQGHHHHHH
# measurementProtocol: PD-1/PD-L1 Homogenous Time-Resolved Fluorescence (HTRF) binding assay
# runConditions: PD-1-Ig (20 nM) / PD-L1-His (10 nM); range classes
pIC50: −log10 of the molar value.
valueKind: pIC50

Below: 5 compounds and their reported pIC50.
>  <compound>
CCCC[C@H]1C(=O)N(C)[C@@H](CCCC)C(=O)N[C@@H](CC(C)C)C(=O)N[C@H](C(N)=O)CNCC(=O)N[C@@H](Cc2ccc(O)cc2)C(=O)N2CCCC[C@H]2C(=O)N[C@@H](CC(N)=O)C(=O)N2CCC[C@H]2C(=O)N[C@@H](Cc2c[nH]cn2)C(=O)N[C@@H](CCC(N)=O)C(=O)N2C[C@H](O)C[C@H]2C(=O)N[C@@H](Cc2c[nH]c3ccccc23)C(=O)N[C@@H](C)C(=O)N[C@@H](Cc2cn(CC(=O)O)c3ccccc23)C(=O)N1C

>  <valueReported>
8.00 to 9.00

$$$$
>  <compound>
CCCC[C@H]1C(=O)N(C)[C@@H](CCCC)C(=O)N[C@@H](CC(C)C)C(=O)N[C@H](C(=O)NCC(N)=O)CNCC(=O)N[C@@H](Cc2ccc(O)cc2)C(=O)N(C)[C@@H](C)C(=O)N[C@@H](CC(N)=O)C(=O)N2CCC[C@H]2C(=O)N[C@@H](Cc2cnc[nH]2)C(=O)N[C@@H](CC(C)C)C(=O)N2CCC[C@H]2C(=O)N[C@@H](Cc2c[nH]c3ccccc23)C(=O)N[C@@H](CO)C(=O)N[C@@H](Cc2cn(CC(=O)O)c3ccccc23)C(=O)N1C

>  <valueReported>
7.00 to 8.00

$$$$
>  <compound>
CCCC[C@H]1C(=O)N(C)[C@@H](CCCC)C(=O)N[C@@H](CC(C)C)C(=O)N[C@H](C(N)=O)CNCC(=O)N[C@@H](Cc2ccc(O)cc2)C(=O)N2CCCC[C@H]2C(=O)N[C@@H](CC(=O)O)C(=O)N2CCC[C@H]2C(=O)N[C@@H](CCC(N)=O)C(=O)N[C@@H](CCC(=O)O)C(=O)N2C[C@H](O)C[C@H]2C(=O)N[C@@H](Cc2c[nH]c3ccccc23)C(=O)N[C@@H](CC(N)=O)C(=O)N[C@@H](Cc2cn(CC(=O)O)c3ccccc23)C(=O)N1C

>  <valueReported>
8.00 to 9.00

$$$$
>  <compound>
CCCC[C@H]1C(=O)N(C)[C@@H](CCCC)C(=O)NC(CC(C)C)C(=O)N[C@H](C(N)=O)CNCC(=O)N[C@@H](Cc2ccc(O)cc2)C(=O)N(C)[C@@H](C)C(=O)N[C@@H](CC(N)=O)C(=O)N2CCC[C@H]2C(=O)N[C@@H](CN)C(=O)N[C@@H](CCC(=O)O)C(=O)N2C[C@H](O)C[C@H]2C(=O)N[C@@H](Cc2c[nH]c3ccccc23)C(=O)N[C@@H](CCN)C(=O)N[C@@H](Cc2cn(CC(=O)O)c3ccccc23)C(=O)N1C (stereo partly drawn)

>  <valueReported>
8.00 to 9.00

$$$$
>  <compound>
CCCC[C@H]1C(=O)N(C)[C@@H](CCCC)C(=O)N[C@@H](CC(C)C)C(=O)N[C@H](C(N)=O)CNCC(=O)N[C@@H](Cc2ccc(F)cc2)C(=O)N2CCCC[C@H]2C(=O)N[C@@H](CC(=O)O)C(=O)N2CCC[C@H]2C(=O)N[C@@H](CCC(N)=O)C(=O)N[C@@H](CCC(=O)O)C(=O)N2C[C@H](O)C[C@H]2C(=O)N[C@@H](Cc2c[nH]c3ccccc23)C(=O)N[C@@H](CC(N)=O)C(=O)N[C@@H](Cc2cn(CC(=O)O)c3ccccc23)C(=O)N1C

>  <valueReported>
8.00 to 9.00

$$$$

Now for a further compound.
Q. What value of pIC50 on PD-1-Ig binding to PD-L1-TVMV-His (PD-L1-His) (Homo sapiens) does CCCC[C@H]1C(=O)N(C)[C@@H](CCCC)C(=O)N[C@@H](CC(C)C)C(=O)N[C@H](C(=O)NCC(N)=O)CNCC(=O)N[C@@H](Cc2ccc(O)cc2)C(=O)N(C)[C@@H](C)C(=O)N[C@@H](CC(=O)O)C(=O)N2CCC[C@H]2C(=O)N[C@@H](CCC(N)=O)C(=O)N[C@@H](CC(C)C)C(=O)N2C[C@H](O)C[C@H]2C(=O)N[C@@H](Cc2c[nH]c3ccccc23)C(=O)N[C@@H](CC(N)=O)C(=O)N[C@@H](Cc2cn(CC(=O)O)c3ccccc23)C(=O)N1C have?
A. 7.00 to 8.00
